Exercise: state measured pIC50 for each of the compounds provided.
experimental-system: AmpC (P. aeruginosa) (Pseudomonas aeruginosa (strain ATCC 15692 / DSM 22644 / CIP 104116 / JCM 14847 / LMG 12228 / 1C / PRS 101 / PAO1), UniProt P24735)
Sequence (P24735 27-397): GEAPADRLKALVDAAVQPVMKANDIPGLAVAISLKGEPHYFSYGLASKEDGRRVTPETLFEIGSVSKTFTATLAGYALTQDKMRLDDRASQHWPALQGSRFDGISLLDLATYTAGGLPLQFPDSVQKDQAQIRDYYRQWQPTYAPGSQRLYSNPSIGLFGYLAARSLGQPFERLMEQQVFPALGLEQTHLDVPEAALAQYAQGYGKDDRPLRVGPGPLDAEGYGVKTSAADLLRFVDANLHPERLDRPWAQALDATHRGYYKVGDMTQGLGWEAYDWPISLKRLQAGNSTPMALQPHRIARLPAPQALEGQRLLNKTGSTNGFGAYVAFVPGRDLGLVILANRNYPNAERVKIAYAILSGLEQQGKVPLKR
assay: biochemical
Numbers only, as −log10 of the molar value.

| compound | pIC50 |
| --- | --- |
| O=C([C@@H]1CC[C@@H]2CN1C(=O)N2OS(=O)(=O)O)N1CC2CNCC2C1 (stereo partly shown) [Example 53] | 6.00 |
| O=C(OCCC1CCNCC1)[C@@H]1CC[C@@H]2CN1C(=O)N2OS(=O)(=O)O [Example 112] | 6.78 |
| CO[C@H]1CNCC[C@H]1NC(=O)[C@@H]1CC[C@@H]2CN1C(=O)N2OS(=O)(=O)O [Example 26] | 6.92 |

Kindly review the next compound as well.
Dear colleague, I am looking for the recorded pIC50 of the following compound: O=C(Nc1ccc2c(c1)CCNC2)[C@@H]1CC[C@@H]2CN1C(=O)N2OS(=O)(=O)O [Example 16]
7.85

---

experimental-system: AmpC (P. aeruginosa) (Pseudomonas aeruginosa (strain ATCC 15692 / DSM 22644 / CIP 104116 / JCM 14847 / LMG 12228 / 1C / PRS 101 / PAO1))
assay: biochemical
study-conditions: Table 3; read-out: P.a. AmpC IC50
Procedure: The Class C enzyme activities were measured in the presence of the test inhibitor in spectrophotometric assay against the commercially available substrate, nitrocefin. The enzyme AmpC (P. aeruginosa.), and the substrate, were dissolved in 100 mM KH2PO4 buffer (pH 7). The buffer also contains 0.005% BSA. […] The IC50 value was determined from semi logarithmic plots of enzyme inhibition versus inhibitor concentration, with a curve generated using a 4-parameter fit.
Exercise: state measured pIC50 for each of the compounds provided.
Numbers only, as −log10 of the molar value.

A selection of reference data follows.
| compound | pIC50 |
| --- | --- |
| O=C(O[C@H]1CCCNCC1)[C@@H]1CC[C@@H]2CN1C(=O)N2OS(=O)(=O)O [Example 91] | 7.08 |
| O=C(Nc1ccccn1)[C@@H]1CC[C@@H]2CN1C(=O)N2OS(=O)(=O)O [Example 72] | 8.92 |

Fill in pIC50 for each of the 2 compounds listed.
1. O=C(Nc1ccnc(N2CCNCC2)n1)[C@@H]1CC[C@@H]2CN1C(=O)N2OS(=O)(=O)O [Example 85]
2. NCc1ccnc(NC(=O)[C@@H]2CC[C@@H]3CN2C(=O)N3OS(=O)(=O)O)c1 [Example 76]

6.59
8.70

---

experimental-system: KPC-2 (K. pneumoniae) (Klebsiella pneumoniae, UniProt Q9F663)
Sequence (Q9F663 25-293 limits assumed): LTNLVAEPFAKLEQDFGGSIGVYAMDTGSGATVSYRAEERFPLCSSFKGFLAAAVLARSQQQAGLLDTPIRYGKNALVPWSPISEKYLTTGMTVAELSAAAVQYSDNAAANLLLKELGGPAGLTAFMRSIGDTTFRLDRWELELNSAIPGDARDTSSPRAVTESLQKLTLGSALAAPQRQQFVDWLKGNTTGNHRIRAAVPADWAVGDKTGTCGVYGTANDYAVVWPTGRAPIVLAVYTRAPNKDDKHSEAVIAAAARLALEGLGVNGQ
assay: biochemical
study-conditions: Table 2; read-out: K.p. KPC-2 IC50
Exercise: state measured IC50 for each of the compounds provided.
Give bare numbers, in nM.

A selection of reference data follows.
| compound | unit-label | IC50 |
| --- | --- | --- |
| NCc1ccc(NC(=O)[C@@H]2CC[C@@H]3CN2C(=O)N3OS(=O)(=O)O)cc1 [Example 9] | nM | 72 |
| CC1(C)[C@H](C(=O)O)N2C(=O)C[C@H]2S1(=O)=O [Sulbactam, sulbactam, reference compound] | nM | 33000 |
| O=C(N[C@H]1CCCNCC1)[C@@H]1CC[C@@H]2CN1C(=O)N2OS(=O)(=O)O [Example 2] | nM | 245 |
| COc1cc(NC(=O)[C@@H]2CC[C@@H]3CN2C(=O)N3OS(=O)(=O)O)ccn1 [Example 7] | nM | 8 |

Dear colleague, I am looking for the recorded IC50 of the following compound: CN(C)c1cc(NC(=O)[C@@H]2CC[C@@H]3CN2C(=O)N3OS(=O)(=O)O)ccn1 [Example 8]
1.6

---

experimental-system: KPC-2 (K. pneumoniae) (Klebsiella pneumoniae)
assay: biochemical
study-conditions: Table 3; read-out: K.p. KPC-2 IC50
Exercise: state measured pIC50 for each of the compounds provided.
Give bare numbers, as −log10 of the molar value.

A selection of reference data follows.
| compound | quantity-measured | value-measured |
| --- | --- | --- |
| O=C(Nc1cccnc1)[C@@H]1CC[C@@H]2CN1C(=O)N2OS(=O)(=O)O | pIC50 | 7.38 |
| O=C(NCCC1CCNCC1)[C@@H]1CC[C@@H]2CN1C(=O)N2OS(=O)(=O)O | pIC50 | 7.35 |
| O=C(O[C@H]1CNC[C@@H]1F)[C@@H]1CC[C@@H]2CN1C(=O)N2OS(=O)(=O)O | pIC50 | 8.00 |

Kindly review the next compound as well.
Param readout = pIC50; param system = KPC-2 (K. pneumoniae) (Klebsiella pneumoniae); param query = O=C(NC1CCCNC1)[C@@H]1CC[C@@H]2CN1C(=O)N2OS(=O)(=O)O (single isomer, unassigned) [Example 19b] ; response: value
6.62

---

experimental-system: AmpC (P. aeruginosa) (Pseudomonas aeruginosa (strain ATCC 15692 / DSM 22644 / CIP 104116 / JCM 14847 / LMG 12228 / 1C / PRS 101 / PAO1))
assay: biochemical
study-conditions: Table 3; read-out: P.a. AmpC IC50
quantity-measured: pIC50
Numbers only, as −log10 of the molar value.

A selection of reference data follows.
| mol-smiles | value-measured |
| --- | --- |
| O=C(O[C@H]1CCNC[C@@H]1F)[C@@H]1CC[C@@H]2CN1C(=O)N2OS(=O)(=O)O | 7.48 |
| O=C(O[C@H]1CCNC[C@H]1F)[C@@H]1CC[C@@H]2CN1C(=O)N2OS(=O)(=O)O | 7.34 |
| O=C(OC1CNNC1)[C@@H]1CC[C@@H]2CN1C(=O)N2OS(=O)(=O)O | 6.15 |
| CN(C)c1ccnc(NC(=O)[C@@H]2CC[C@@H]3CN2C(=O)N3OS(=O)(=O)O)c1 | 8.52 |
| CC(=O)Oc1ccc(C(=O)NCC(CNC(=O)c2ccc(OC(C)=O)c(OC(C)=O)c2)OC(=O)[C@@H]2CC[C@@H]3CN2C(=O)N3OS(=O)(=O)O)cc1OC(C)=O | 7.21 |

Fill in pIC50 for each of the 2 molecules listed.
1. O=C(N[C@@H]1CCNC1)[C@@H]1CC[C@@H]2CN1C(=O)N2OS(=O)(=O)O
2. O=C(Nc1ccc2c(c1)CCN2)[C@@H]1CC[C@@H]2CN1C(=O)N2OS(=O)(=O)O

1. 4.54
2. 7.25

---

Exercise: state measured IC50 for each of the compounds provided.
experimental-system: KPC-2 (K. pneumoniae) (Klebsiella pneumoniae, UniProt Q9F663)
assay: biochemical
study-conditions: Table 3; read-out: K.p. KPC-2 IC50
Give bare numbers, in nM.

A selection of reference data follows.
| compound | experimental-system | value-measured |
| --- | --- | --- |
| O=C(NC1CCS(=O)(=O)CC1)[C@@H]1CC[C@@H]2CN1C(=O)N2OS(=O)(=O)O [Example 27] | KPC-2 (K. pneumoniae) (Klebsiella pneumoniae, UniProt Q9F663) | 150 |
| O=C(OCC1CCNCC1)[C@@H]1CC[C@@H]2CN1C(=O)N2OS(=O)(=O)O [Example 18] | KPC-2 (K. pneumoniae) (Klebsiella pneumoniae, UniProt Q9F663) | 10 |
| O=C(O[C@H]1CCNC1)[C@@H]1CC[C@@H]2CN1C(=O)N2OS(=O)(=O)O [Example 95] | KPC-2 (K. pneumoniae) (Klebsiella pneumoniae, UniProt Q9F663) | 21 |
| Nc1cccc(NC(=O)[C@@H]2CC[C@@H]3CN2C(=O)N3OS(=O)(=O)O)n1 [Example 74] | KPC-2 (K. pneumoniae) (Klebsiella pneumoniae, UniProt Q9F663) | 11 |
| O=C(N[C@@H]1CNC[C@@H]1O)[C@@H]1CC[C@@H]2CN1C(=O)N2OS(=O)(=O)O [Example 30] | KPC-2 (K. pneumoniae) (Klebsiella pneumoniae, UniProt Q9F663) | 520 |
| CN(C)C1CCN(C(=O)[C@@H]2CC[C@@H]3CN2C(=O)N3OS(=O)(=O)O)C1 (stereo partly shown) [Example 56] | KPC-2 (K. pneumoniae) (Klebsiella pneumoniae, UniProt Q9F663) | 1600 |
| O=C(O[C@H]1CNC[C@H]1F)[C@@H]1CC[C@@H]2CN1C(=O)N2OS(=O)(=O)O [Example 104] | KPC-2 (K. pneumoniae) (Klebsiella pneumoniae, UniProt Q9F663) | 24 |
| O=C(O[C@@H]1CCCNCC1)[C@@H]1CC[C@@H]2CN1C(=O)N2OS(=O)(=O)O [Example 92] | KPC-2 (K. pneumoniae) (Klebsiella pneumoniae, UniProt Q9F663) | 6400 |
| CNCc1cccc(NC(=O)[C@@H]2CC[C@@H]3CN2C(=O)N3OS(=O)(=O)O)c1 [Example 61] | KPC-2 (K. pneumoniae) (Klebsiella pneumoniae, UniProt Q9F663) | 78 |
| O=C(O[C@@H]1CCNC1)[C@@H]1CC[C@@H]2CN1C(=O)N2OS(=O)(=O)O [Example 94] | KPC-2 (K. pneumoniae) (Klebsiella pneumoniae, UniProt Q9F663) | 40 |

Fill in IC50 for each of the 6 compounds listed.
1. Cn1ccnc1NC(=O)[C@@H]1CC[C@@H]2CN1C(=O)N2OS(=O)(=O)O [Example 86]
2. O=C(OCCC1CCNCC1)[C@@H]1CC[C@@H]2CN1C(=O)N2OS(=O)(=O)O [Example 112]
3. O=C(NCC1(F)CNC1)[C@@H]1CC[C@@H]2CN1C(=O)N2OS(=O)(=O)O [Example 37]
4. NCc1ccc(OC(=O)[C@@H]2CC[C@@H]3CN2C(=O)N3OS(=O)(=O)O)cc1 [Example 115]
5. NCc1ccc(NC(=O)[C@@H]2CC[C@@H]3CN2C(=O)N3OS(=O)(=O)O)nc1 [Example 77]
6. O=C([C@@H]1CC[C@@H]2CN1C(=O)N2OS(=O)(=O)O)N1CCNCC1 [Example 51]

1. 135
2. 13
3. 120
4. 2
5. 42
6. 520
